List of pIC50 values.
Target: hERG channel (Homo sapiens)
Sequence (Q12809 whole entry): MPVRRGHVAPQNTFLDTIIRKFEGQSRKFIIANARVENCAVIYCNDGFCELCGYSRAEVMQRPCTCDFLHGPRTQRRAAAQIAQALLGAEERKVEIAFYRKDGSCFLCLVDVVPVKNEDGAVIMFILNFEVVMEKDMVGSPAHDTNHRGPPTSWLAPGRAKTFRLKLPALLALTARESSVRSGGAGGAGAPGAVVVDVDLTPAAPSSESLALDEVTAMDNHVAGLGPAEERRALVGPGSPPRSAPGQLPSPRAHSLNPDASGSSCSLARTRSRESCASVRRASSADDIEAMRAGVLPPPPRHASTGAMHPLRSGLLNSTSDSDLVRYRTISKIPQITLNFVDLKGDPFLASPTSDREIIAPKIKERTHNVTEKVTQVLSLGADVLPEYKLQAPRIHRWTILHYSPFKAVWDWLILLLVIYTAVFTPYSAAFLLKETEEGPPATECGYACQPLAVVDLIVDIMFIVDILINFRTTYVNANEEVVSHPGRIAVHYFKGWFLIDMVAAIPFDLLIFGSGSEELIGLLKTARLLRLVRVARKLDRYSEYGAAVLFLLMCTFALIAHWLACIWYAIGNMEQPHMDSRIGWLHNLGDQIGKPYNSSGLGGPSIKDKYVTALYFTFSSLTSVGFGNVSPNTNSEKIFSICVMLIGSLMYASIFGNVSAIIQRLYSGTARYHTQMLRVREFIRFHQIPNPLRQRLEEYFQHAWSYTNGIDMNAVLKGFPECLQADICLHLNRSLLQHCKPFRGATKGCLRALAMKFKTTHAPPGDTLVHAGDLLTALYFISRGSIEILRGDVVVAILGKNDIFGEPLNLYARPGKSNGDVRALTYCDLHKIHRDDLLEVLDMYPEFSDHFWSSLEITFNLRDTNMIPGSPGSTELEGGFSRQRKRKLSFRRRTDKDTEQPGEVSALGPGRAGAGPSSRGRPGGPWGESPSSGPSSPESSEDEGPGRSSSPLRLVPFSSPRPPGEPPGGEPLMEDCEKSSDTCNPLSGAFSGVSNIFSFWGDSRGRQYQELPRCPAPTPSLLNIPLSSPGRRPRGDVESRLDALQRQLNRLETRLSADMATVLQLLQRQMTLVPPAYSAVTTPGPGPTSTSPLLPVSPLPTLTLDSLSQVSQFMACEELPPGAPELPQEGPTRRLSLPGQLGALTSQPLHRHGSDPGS
pIC50: −log10 of the molar value.

Compound | pIC50
COc1cc(C(=O)c2c(C)oc3c(O)c(OC)ccc23)cc(OC)c1OC [Example 1] | < 5.17
COc1cc(C(=O)c2c(C)oc3c(OP(=O)([O-])[O-])c(OC)ccc23)cc(OC)c1OC.[Na+].[Na+] [Example 2, phosphate] | < 3.01
